# maps each entry to its Km
- ASSAY_SYSTEM: cathepsin L (Homo sapiens, UniProt P07711)
- Construct: made in house
- Sequence (P07711 114-333): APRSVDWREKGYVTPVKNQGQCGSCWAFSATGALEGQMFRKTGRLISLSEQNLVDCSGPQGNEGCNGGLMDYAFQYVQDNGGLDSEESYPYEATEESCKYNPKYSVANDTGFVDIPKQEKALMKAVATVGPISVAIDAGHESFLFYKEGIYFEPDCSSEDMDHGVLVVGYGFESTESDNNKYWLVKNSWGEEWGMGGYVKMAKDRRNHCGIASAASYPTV
- METHOD_DESCRIPTION: Kinetic parameters of ACC substrates with cathepsin L
- Assay type: biochemical
- CONDITIONS: Table S2; cathepsin L; four independent experiments, S.D. below 15%; read-out: KM
Non-standard residues stand in square brackets, D forms with d. *: point of attachment. Phe(3-Cl) = N[C@@H](Cc1cccc(Cl)c1)C(=O)O; ACC = NC(=O)Cc1cc(=O)oc2cc(N*)ccc12; Orn = NCCC[C@H](N)C(=O)O; Dap = NC[C@H](N)C(=O)O; Mob = COc1ccc(C*)cc1; Meb = Cc1ccc(C*)cc1

SUBSTANCE: Ac-[Dap][Orn][Phe(3-Cl)]K-{ACC} (SMILES CC(=O)N[C@@H](CN)C(=O)N[C@@H](CCCN)C(=O)N[C@@H](Cc1cccc(Cl)c1)C(=O)N[C@@H](CCCCN)C(=O)Nc1ccc2c(CC(N)=O)cc(=O)oc2c1)
Km / µM: 7.11

SUBSTANCE: Ac-[Dap][Orn][Phe(3-Cl)]C(Meb)-{ACC} (SMILES CC(=O)N[C@@H](CN)C(=O)N[C@@H](CCCN)C(=O)N[C@@H](Cc1cccc(Cl)c1)C(=O)N[C@@H](CSCc1ccc(C)cc1)C(=O)Nc1ccc2c(CC(N)=O)cc(=O)oc2c1)
Km / µM: 4.99

SUBSTANCE: Ac-[Dap][Orn][Phe(3-Cl)]C(Mob)-{ACC} (SMILES COc1ccc(CSC[C@H](NC(=O)[C@H](Cc2cccc(Cl)c2)NC(=O)[C@H](CCCN)NC(=O)[C@H](CN)NC(C)=O)C(=O)Nc2ccc3c(CC(N)=O)cc(=O)oc3c2)cc1)
Km / µM: 4.15

----------
# maps each entry to its Relative substrate activity (rate of hydrolysis), cathepsin L
- ASSAY_SYSTEM: cathepsin L (Homo sapiens)
- Construct: made in house
- METHOD_DESCRIPTION: Substrate selectivity screening, rate of hydrolysis, cathepsin L
- Assay type: biochemical
- CONDITIONS: Table S4; substrate 100µM, cathepsin 5nM; pH 5.5, 37 °C; average of at least three screenings
Non-standard residues stand in square brackets, D forms with d. *: point of attachment. Phe(3,4-Cl2) = N[C@@H](Cc1ccc(Cl)c(Cl)c1)C(=O)O; Phe(F5) = N[C@@H](Cc1c(F)c(F)c(F)c(F)c1F)C(=O)O; Phe(3,4-F2) = N[C@@H](Cc1ccc(F)c(F)c1)C(=O)O; Phe(2-Cl) = N[C@@H](Cc1ccccc1Cl)C(=O)O; Phe(2-F) = N[C@@H](Cc1ccccc1F)C(=O)O; ACC = NC(=O)Cc1cc(=O)oc2cc(N*)ccc12; Met(O) = CS(=O)CC[C@H](N)C(=O)O; Tic = O=C(O)[C@@H]1Cc2ccccc2CN1; dOrn = NCCC[C@@H](N)C(=O)O; Orn = NCCC[C@H](N)C(=O)O; Dab = NCC[C@H](N)C(=O)O
VALUE_KIND: Relative substrate activity (rate of hydrolysis), cathepsin L (RFU/s)

SUBSTANCE: Ac-A[dK]K(Ac)R-{ACC} (SMILES CC(=O)NCCCC[C@H](NC(=O)[C@@H](CCCCN)NC(=O)[C@H](C)NC(C)=O)C(=O)N[C@@H](CCCNC(=N)N)C(=O)Nc1ccc2c(CC(N)=O)cc(=O)oc2c1)
UNIT_STRING: RFU/s
VAL: 25.3
--
SUBSTANCE: Ac-H[dL][Phe(F5)][Orn]-{ACC} (SMILES CC(=O)N[C@@H](Cc1c[nH]cn1)C(=O)N[C@H](CC(C)C)C(=O)N[C@@H](Cc1c(F)c(F)c(F)c(F)c1F)C(=O)N[C@@H](CCCN)C(=O)Nc1ccc2c(CC(N)=O)cc(=O)oc2c1)
UNIT_STRING: RFU/s
VAL: 153
--
SUBSTANCE: Ac-[Tic][dOrn][Phe(2-Cl)]K-{ACC} (SMILES CC(=O)N1Cc2ccccc2C[C@H]1C(=O)N[C@H](CCCN)C(=O)N[C@@H](Cc1ccccc1Cl)C(=O)N[C@@H](CCCCN)C(=O)Nc1ccc2c(CC(N)=O)cc(=O)oc2c1) [Tic-DArg-Phe(2-Cl)-Lys]
UNIT_STRING: RFU/s
VAL: 134
--
SUBSTANCE: Ac-H[dL][Phe(3,4-Cl2)]R-{ACC} (SMILES CC(=O)N[C@@H](Cc1c[nH]cn1)C(=O)N[C@H](CC(C)C)C(=O)N[C@@H](Cc1ccc(Cl)c(Cl)c1)C(=O)N[C@@H](CCCNC(=N)N)C(=O)Nc1ccc2c(CC(N)=O)cc(=O)oc2c1)
UNIT_STRING: RFU/s
VAL: 901
--
SUBSTANCE: Ac-[Tic][Dab][Phe(3,4-F2)]R-{ACC} (SMILES CC(=O)N1Cc2ccccc2C[C@H]1C(=O)N[C@@H](CCN)C(=O)N[C@@H](Cc1ccc(F)c(F)c1)C(=O)N[C@@H](CCCNC(=N)N)C(=O)Nc1ccc2c(CC(N)=O)cc(=O)oc2c1)
UNIT_STRING: RFU/s
VAL: 825
--
SUBSTANCE: Ac-HRFR-{ACC} (SMILES CC(=O)N[C@@H](Cc1c[nH]cn1)C(=O)N[C@@H](CCCNC(=N)N)C(=O)N[C@@H](Cc1ccccc1)C(=O)N[C@@H](CCCNC(=N)N)C(=O)Nc1ccc2c(CC(N)=O)cc(=O)oc2c1) [reference compound]
UNIT_STRING: RFU/s
VAL: 875
--
SUBSTANCE: Ac-H[dV][Phe(F5)]R-{ACC} (SMILES CC(=O)N[C@@H](Cc1c[nH]cn1)C(=O)N[C@@H](C(=O)N[C@@H](Cc1c(F)c(F)c(F)c(F)c1F)C(=O)N[C@@H](CCCNC(=N)N)C(=O)Nc1ccc2c(CC(N)=O)cc(=O)oc2c1)C(C)C)
UNIT_STRING: RFU/s
VAL: 706
--
SUBSTANCE: Ac-[Met(O)][dR][Phe(2-F)]R-{ACC} (SMILES CC(=O)N[C@@H](CCS(C)=O)C(=O)N[C@H](CCCNC(=N)N)C(=O)N[C@@H](Cc1ccccc1F)C(=O)N[C@@H](CCCNC(=N)N)C(=O)Nc1ccc2c(CC(N)=O)cc(=O)oc2c1)
UNIT_STRING: RFU/s
VAL: 658
--
SUBSTANCE: Ac-A[Orn][Phe(3,4-Cl2)]R-{ACC} (SMILES CC(=O)N[C@@H](C)C(=O)N[C@@H](CCCN)C(=O)N[C@@H](Cc1ccc(Cl)c(Cl)c1)C(=O)N[C@@H](CCCNC(=N)N)C(=O)Nc1ccc2c(CC(N)=O)cc(=O)oc2c1)
UNIT_STRING: RFU/s
VAL: 844

----------
- ASSAY_SYSTEM: cathepsin L (Homo sapiens)
- Construct: made in house
- METHOD_DESCRIPTION: Kinetic parameters of ACC substrates with cathepsin L
- Format: biochemical
- CONDITIONS: Fig. 5B; pH 5.5, 37 °C; cathepsin L 0.1–0.5 nM; triplicate, SD below 15%
Non-standard residues stand in square brackets, D forms with d. *: point of attachment. Phe(F5) = N[C@@H](Cc1c(F)c(F)c(F)c(F)c1F)C(=O)O; Phe(3-F) = N[C@@H](Cc1cccc(F)c1)C(=O)O; Phe(4-F) = N[C@@H](Cc1ccc(F)cc1)C(=O)O; ACC = NC(=O)Cc1cc(=O)oc2cc(N*)ccc12; hArg = N=C(N)NCCCC[C@H](N)C(=O)O; ClZ = O=C(OCc1ccccc1Cl)*; OBn = c1ccc(CO*)cc1; Bn = c1ccc(C*)cc1

SUBSTANCE: Ac-H[dV][Phe(F5)]E(OBn)-{ACC} (SMILES CC(=O)N[C@@H](Cc1c[nH]cn1)C(=O)N[C@@H](C(=O)N[C@@H](Cc1c(F)c(F)c(F)c(F)c1F)C(=O)N[C@@H](CCC(=O)OCc1ccccc1)C(=O)Nc1ccc2c(CC(N)=O)cc(=O)oc2c1)C(C)C)
kcat/KM Cath-L: 599,800 M^-1s^-1
//
SUBSTANCE: Ac-H[dV][Phe(3-F)]R-{ACC} (SMILES CC(=O)N[C@@H](Cc1c[nH]cn1)C(=O)N[C@@H](C(=O)N[C@@H](Cc1cccc(F)c1)C(=O)N[C@@H](CCCNC(=N)N)C(=O)Nc1ccc2c(CC(N)=O)cc(=O)oc2c1)C(C)C)
kcat/KM Cath-L: 8,432,000 M^-1s^-1
//
SUBSTANCE: Ac-H[dV][Phe(F5)][hArg]-{ACC} (SMILES CC(=O)N[C@@H](Cc1c[nH]cn1)C(=O)N[C@@H](C(=O)N[C@@H](Cc1c(F)c(F)c(F)c(F)c1F)C(=O)N[C@@H](CCCCNC(=N)N)C(=O)Nc1ccc2c(CC(N)=O)cc(=O)oc2c1)C(C)C)
kcat/KM Cath-L: 317,900 M^-1s^-1
//
SUBSTANCE: Ac-H[dV][Phe(F5)]C(Bn)-{ACC} (SMILES CC(=O)N[C@@H](Cc1c[nH]cn1)C(=O)N[C@@H](C(=O)N[C@@H](Cc1c(F)c(F)c(F)c(F)c1F)C(=O)N[C@@H](CSCc1ccccc1)C(=O)Nc1ccc2c(CC(N)=O)cc(=O)oc2c1)C(C)C)
kcat/KM Cath-L: 732,900 M^-1s^-1
//
SUBSTANCE: Ac-H[dV]T(Bn)R-{ACC} (SMILES CC(=O)N[C@@H](Cc1c[nH]cn1)C(=O)N[C@@H](C(=O)N[C@H](C(=O)N[C@@H](CCCNC(=N)N)C(=O)Nc1ccc2c(CC(N)=O)cc(=O)oc2c1)[C@@H](C)OCc1ccccc1)C(C)C)
kcat/KM Cath-L: 158,520 M^-1s^-1
//
SUBSTANCE: Ac-H[dV][Phe(F5)]K(ClZ)-{ACC} (SMILES CC(=O)N[C@@H](Cc1c[nH]cn1)C(=O)N[C@@H](C(=O)N[C@@H](Cc1c(F)c(F)c(F)c(F)c1F)C(=O)N[C@@H](CCCCNC(=O)OCc1ccccc1Cl)C(=O)Nc1ccc2c(CC(N)=O)cc(=O)oc2c1)C(C)C)
kcat/KM Cath-L: 686,700 M^-1s^-1
//
SUBSTANCE: Ac-H[dV][Phe(4-F)]R-{ACC} (SMILES CC(=O)N[C@@H](Cc1c[nH]cn1)C(=O)N[C@@H](C(=O)N[C@@H](Cc1ccc(F)cc1)C(=O)N[C@@H](CCCNC(=N)N)C(=O)Nc1ccc2c(CC(N)=O)cc(=O)oc2c1)C(C)C)
kcat/KM Cath-L: 6,991,000 M^-1s^-1
